# SUBJECT_OF_TEST: UniProt:Q00534
# Sequence (Q00534 whole entry): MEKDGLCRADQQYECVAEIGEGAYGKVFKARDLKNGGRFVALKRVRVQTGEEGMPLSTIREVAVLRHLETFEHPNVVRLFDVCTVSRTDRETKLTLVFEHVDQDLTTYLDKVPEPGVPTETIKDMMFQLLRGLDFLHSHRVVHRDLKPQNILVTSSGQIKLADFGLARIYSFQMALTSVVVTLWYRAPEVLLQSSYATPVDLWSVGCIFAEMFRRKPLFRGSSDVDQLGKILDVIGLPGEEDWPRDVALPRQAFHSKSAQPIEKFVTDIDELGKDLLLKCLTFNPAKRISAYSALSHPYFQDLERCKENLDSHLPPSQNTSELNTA
READOUT: pIC50
# pIC50 is unitless: minus log10 of the molar concentration; print number only

Entry `C=CC(=O)Nc1ccc(C(=O)Nc2n[nH]c3ccc(-c4cncc(NC[C@@H](O)c5ccccc5)c4)cc23)cc1` : pIC50 on UniProt:Q00534 = 6.02

====

# SUBJECT_OF_TEST: Cyclin-dependent kinase 2 (Homo sapiens)
# pIC50 per entry
# pIC50 is unitless: minus log10 of the molar concentration; print number only

Below, each entry is followed by its recorded pIC50 result.
# SMILES_INPUT, ENDPOINT_VALUE
records = [
    ("C=CC(=O)Nc1ccc(C(=O)Nc2n[nH]c3ccc(-c4cncc(N[C@H](CO)Cc5ccccc5)c4)cc23)cc1", 6.23),
    ("O=C(Nc1n[nH]c2ccc(-c3cncc(NC[C@H](CO)c4ccccc4)c3)cc12)c1ccccc1", 6.24),
    ("N[C@@H](COc1cncc(-c2ccc3[nH]nc(NC(=O)c4ccccc4)c3c2)c1)Cc1ccccc1", 6.30),
]

Entry `O=C(Nc1n[nH]c2ccc(-c3cncc(NC[C@@H](CO)Cc4ccccc4)c3)cc12)c1ccccc1` : pIC50 on Cyclin-dependent kinase 2 (Homo sapiens) = 6.22

Entry `C=CC(=O)Nc1ccc(C(=O)Nc2n[nH]c3ccc(-c4cncc(NC[C@@H](O)c5ccccc5)c4)cc23)cc1` : pIC50 on Cyclin-dependent kinase 2 (Homo sapiens) = 6.08

Entry `NC[C@@H](CNc1cncc(-c2ccc3[nH]nc(NC(=O)c4ccccc4)c3c2)c1)c1ccccc1` : pIC50 on Cyclin-dependent kinase 2 (Homo sapiens) = 6.72

====

# METHOD: Observed volume of distribution at steady state in ICR mouse at 5 mg/kg, iv single dose measured upto 24 hrs
# Type: ADME, organism-based
# SETUP_CONDITIONS: in vivo, read-out: Vdss
READOUT: Vd (L/kg)
Give a bare numeral; the unit L/kg is implied.

Memo: `C=CC(=O)Nc1ccc(C(=O)Nc2n[nH]c3ccc(-c4cncc(NC[C@@H](O)c5ccccc5)c4)cc23)cc1` , reported Vd: 1.28

====

# METHOD: Tmax in ICR mouse at 5 mg/kg, sc single dose measured upto 24 hrs
# Type: ADME, organism-based
# SETUP_CONDITIONS: in vivo
READOUT: Tmax (h)
Give a bare numeral; the unit h is implied.

Memo: `C=CC(=O)Nc1ccc(C(=O)Nc2n[nH]c3ccc(-c4cncc(NC[C@@H](O)c5ccccc5)c4)cc23)cc1` , reported Tmax: 1

====

# METHOD: Plasma protein binding in mouse measured after 4 hrs by LC-MS/MS analysis
# Assay type: ADME, cell-free
# SETUP_CONDITIONS: read-out: PPB
READOUT: fraction unbound at 4 h

Memo: `C=CC(=O)Nc1ccc(C(=O)Nc2n[nH]c3ccc(-c4cncc(NC[C@@H](O)c5ccccc5)c4)cc23)cc1` , reported fraction unbound at 4 h: < 0.01

====

# METHOD: Apparent permeability across basolateral to apical side in human Caco-2 cells measured after 120 mins by LC-MS/MS analysis
# Type: ADME, cell-based
READOUT: Papp B→A at 2 h (×10⁻⁶ cm/s)
Give a bare numeral; the unit ×10⁻⁶ cm/s is implied.

Memo: `C=CC(=O)Nc1ccc(C(=O)Nc2n[nH]c3ccc(-c4cncc(NC[C@@H](O)c5ccccc5)c4)cc23)cc1` , reported Papp B→A at 2 h: 6
